Source: patent US20250197490A1

# System Tested: T1, biotinylated CRH (human and mouse, UniProt P01143 145-185 (rat entry), not fully specified; biotin; which end is not stated for the result (NT-biotin and CT-biotin forms were used))
# T1 construct: also called biotin-CRH; CRH (NT biotin)
# T1 peptide: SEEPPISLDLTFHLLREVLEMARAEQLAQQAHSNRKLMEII
# Procedure Summary: ELISA, CRH (NT biotin)

# Binder, binding result
records = [
    ("PR302339 (antibody, human IgG1, kappa, V domains shown) VH: EVKLVESGGGLVKPGGSLKLSCAASGFTFSSYALSWVRQTPEKRLEWVASIRSGGTTYYPDSVKGRFTISRDNARNILYLQMSSLRSEDTAIYYCTRGIDWGQGTLVTVSA VL: NIVMTQTPKFLLVSAGDRVTITCKASQSVNNDVAWYQQKPGQSPKLLIYYASNRYTGVPDRFTGSGYGTDFTFTISTVQAEDLAVYFCQQDYSSWTFGGGTKLEIKR", "binds"),
    ("PR302328 (antibody, human IgG1, kappa, V domains shown) VH: EVKLVESGGGLVKPGGSLKLSCAASGFTFSSYAMSWVRQTPEKRLEWVASIRSGGTTYYPDSVKGRFTISRDNARNILYLQMSSLRSEDTAIYYCTRGIDWGQGTLVTVSA VL: NIVMTQTPKFLLVSAGDRVTITCKASQSVNNDVAWYQQKPGQSPKLLIYYASNRYTGVPDRFTGSGYGTDFTFTISTVQAEDLAVYFCQQDYSSWTFGGGTKLEIKR", "binds"),
    ("PR302324 (antibody, human IgG1, kappa, V domains shown) VH: EVQLQQSGPELVKPGASVKMSCKASGYTFTDYFMKWVKQSHGGSLEWIGVISPNNGDTFYNQKFKGKATLTVDKSSSTAFMQLNSLTSEDSAVYSCARGTDRALFAYWGQGTLVTVSA VL: DVLMTQTPLSLPVSLGDQASISCRSSQSIVHSDGNTYLEWYLQRPGQSPKLLIYKVSNRFSGVPDRFSGSGSGTDFTLKISRVGAEDLGVYYCFQGSHIPWTFGGGTKLEVKR", "binds"),
]
